Test: Serum pharmacokinetics of erlotinib and OSI-420 after gavage
Details: female, Sprague-Dawley, rat, serum, po, 42 mg/kg, T1/2, rat, non-compartmental
measurement_kind: half-life (h)
Use h as the unit, but write only the number.

Provide measured half-life value, entry: "C#Cc1cccc(Nc2ncnc3cc(OCCOC)c(OCCOC)cc23)c1"
8.06

###

Experiment: Serum pharmacokinetics of erlotinib and OSI-420 after gavage
Conditions: female, Sprague-Dawley, rat, serum, po, 42 mg/kg
measurement_kind: AUC(0-t) (ng·h/mL)
Use ng·h/mL as the unit, but write only the number.

Provide measured AUC(0-t) value, entry: "C#Cc1cccc(Nc2ncnc3cc(OCCOC)c(OCCOC)cc23)c1"
28400

###

Experiment: Serum pharmacokinetics of erlotinib and OSI-420 after gavage
Conditions: female, Sprague-Dawley, rat, serum, po, 6 mg/kg, T1/2, rat, non-compartmental
measurement_kind: half-life (h)
Use h as the unit, but write only the number.

Provide measured half-life value, entry: C#Cc1cccc(Nc2ncnc3cc(OCCOC)c(OCCOC)cc23)c1 [Erlotinib]
4.61

###

Test: Serum pharmacokinetics of erlotinib and OSI-420 after gavage
Details: female, Sprague-Dawley, rat, serum, oral, serum half-life
measurement_kind: half-life

Provide measured half-life value, entry: C#Cc1cccc(Nc2ncnc3cc(OCCOC)c(OCCOC)cc23)c1 [Erlotinib]
≤ 480 min

###

Assay: Serum pharmacokinetics of erlotinib and OSI-420 after gavage
Details: female, Sprague-Dawley, rat, serum, po, 6 mg/kg
measurement_kind: AUC(0-t)
Provide a numeric answer, followed by its unit.

Provide measured AUC(0-t) value, entry: C#Cc1cccc(Nc2ncnc3cc(OCCOC)c(OCCOC)cc23)c1 [Erlotinib]
4680 ng·h/mL

###

Test: Serum pharmacokinetics of erlotinib and OSI-420 after gavage
Conditions: female, Sprague-Dawley, rat, serum, po, 42 mg/kg
measurement_kind: Tmax (h)
Use h as the unit, but write only the number.

Provide measured Tmax value, entry: "C#Cc1cccc(Nc2ncnc3cc(OCCOC)c(OCCOC)cc23)c1"
8

###

Assay: Serum pharmacokinetics of erlotinib and OSI-420 after gavage
Details: female, Sprague-Dawley, rat, serum, oral, 6 mg/kg BW/day
measurement_kind: concentration at 24 h (ng/mL)
Use ng/mL as the unit, but write only the number.

Provide measured concentration at 24 h value, entry: "C#Cc1cccc(Nc2ncnc3cc(OCCOC)c(OCCOC)cc23)c1"
25
